Every entry's value here was drawn from paper PMC8586704.

Tested on: Huvec-12
Experiment: Cytotoxicity assay (CCK-8)
Assay type: cell-based
Details: normal human umbilical vein endothelial cell line
Starred links: 1 amine or outer side, 2 acyl side, 3 side chain; linkers in the order of their positions; H or OH if unused. Non-standard residues stand in square brackets, D forms with d. Residues, ends and D or L forms follow the SMILES beside them. Groups on a side chain read outwards from the residue. Trp(1-(1,1-Me2-allyl)) = C=CC(C)(C)n1cc(C[C@H](N)C(=O)O)c2ccccc21; X5 = O=C(Oc1ccc(C[C@H](N[*:1])C(=O)[*:2])cc1[N+](=O)[O-])c1cnccn1; NMeGlu(4S-Me) = C[C@@H](C[C@@H](C(=O)[*:2])N(C)[*:1])C(=O)[*:3]; X12 = C[C@@H](C[C@@H](C(=O)[*:2])N(C)[*:1])C(=O)NCc1ccccc1; Tyr(3-NO2) = N[C@@H](Cc1ccc(O)c([N+](=O)[O-])c1)C(=O)O; Gly(E-crotyl) = C/C=C/C[C@H](N)C(=O)O; NMeL = CN[C@@H](CC(C)C)C(=O)O
measurement name: IC50

[[record]]
compound = "C=CC(C)(C)n1cc(C[C@@H]2NC(=O)[C@H](C/C=C/C)NC(=O)[C@H](CC(C)C)NC(=O)[C@H](C[C@H](C)C(=O)O)N(C)C(=O)[C@H](C)NC(=O)[C@H](Cc3ccc(OC(=O)c4cnccn4)c([N+](=O)[O-])c3)NC(=O)[C@H](CC(C)C)N(C)C2=O)c2ccccc21 [Compound 15, ilamycin NJL15] (cyclo(A[NMeGlu(4S-Me)]L[Gly(E-crotyl)][Trp(1-(1,1-Me2-allyl))][NMeL][X5]))"
tested_system = "Huvec-12"
measurement_name = "IC50"
value_observed = "> 50 µM"

[[record]]
compound = "C=CC(C)(C)n1cc(C[C@@H]2NC(=O)[C@H](C/C=C/C)NC(=O)[C@H](CC(C)C)NC(=O)[C@H](C[C@H](C)C(=O)N[C@@H](Cc3ccc(O)cc3)C(=O)OC)N(C)C(=O)[C@H](C)NC(=O)[C@H](Cc3ccc(O)c([N+](=O)[O-])c3)NC(=O)[C@H](CC(C)C)N(C)C2=O)c2ccccc21 [Compound 8, ilamycin NJL8] (cyclo(A[NMeGlu(4S-Me)]([Tyr-OMe])L[Gly(E-crotyl)][Trp(1-(1,1-Me2-allyl))][NMeL][Tyr(3-NO2)]))"
tested_system = "Huvec-12"
measurement_name = "IC50"
value_observed = "> 50 µM"


Shift focus to the following entry.
In one line, give reported IC50 of the entry C=CC(C)(C)n1cc(C[C@@H]2NC(=O)[C@H](C/C=C/C)NC(=O)[C@H](CC(C)C)NC(=O)[C@H](C[C@H](C)C(=O)NCc3ccccc3)N(C)C(=O)[C@H](C)NC(=O)[C@H](Cc3ccc(O)c([N+](=O)[O-])c3)NC(=O)[C@H](CC(C)C)N(C)C2=O)c2ccccc21 [Compound 9, ilamycin NJL9] (cyclo(A[X12]L[Gly(E-crotyl)][Trp(1-(1,1-Me2-allyl))][NMeL][Tyr(3-NO2)])) . > 50 µM
